Test: Plasma binding determination by plasma ultrafiltration, mouse
Format: in vitro ADME
Details: male, CD-1, mouse, plasma, mouse plasma, 1 μM, 37° C., ultrafiltration; read-out: Fraction Unbound Mean
Reported fraction unbound at 60 min, 1 μM values follow for various molecules
result_type: fraction unbound at 60 min, 1 μM

CSc1nc(N)c2ncn([C@H]3[C@H](O)[C@H](O)[C@]4(CO)C[C@H]34)c2n1    0.742
CNC(=O)[C@H]1O[C@@H](n2cnc3c(NCc4cccc(I)c4)nc(Cl)nc32)[C@H](O)[C@@H]1O [Cl-IB-MECA, reference compound]    0.002

###

Assay: Pharmacokinetics of MRS4322 following intravenous administration to neonatal pigs
Format: in vivo
Details: female, pig, plasma, iv, 0.2 mg/kg, MRS4322 0.2 mg/kg IV, mean
result_type: half-life (h)

CSc1nc(N)c2ncn([C@H]3[C@H](O)[C@H](O)[C@]4(CO)C[C@H]34)c2n1    3.42
